Biological target: T1, cynomolgus sclerostin (cynomolgus monkey)
T1 chain: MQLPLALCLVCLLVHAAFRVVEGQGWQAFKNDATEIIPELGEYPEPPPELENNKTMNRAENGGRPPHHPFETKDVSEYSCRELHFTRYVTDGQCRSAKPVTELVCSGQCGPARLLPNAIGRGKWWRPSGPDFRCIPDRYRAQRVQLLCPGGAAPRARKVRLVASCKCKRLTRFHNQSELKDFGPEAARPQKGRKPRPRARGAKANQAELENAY
Experiment: SPR, pH 7.4, 37C
For each record, write down the corresponding Kd.
The number alone won't do; follow it with the unit.

Task: // lookup Kd for mabA (antibody, V domains shown) VH: EVQLVQSGAEVKKPGASVKVSCKASGYTFTDYNMHWVRQAPGQGLEWMGEINPNSGGAGYNQKFKGRVTMTTDTSTSTAYMELRSLRSDDTAVYYCARLGYDDIYDDWYFDVWGQGTTVTVSS VL: DIQMTQSPSSLSASVGDRVTITCRASQDISNYLNWYQQKPGKAPKLLIYYTSRLLSGVPSRFSGSGSGTDFTLTISSLQPEDFATYYCQQGDTLPYTFGGGTKVEIK
Result: 0.0753 nM

Task: // lookup Kd for mabA_NpH1 (antibody, V domains shown) VH: EVQLVQSGAEVKKPGASVKVSCKASGYTFTDYNMHWVRQAPGQGLEWMGEINPNSGGAGYNQKFKGRVTMTTDTSTSTAYMELRSLRSDDTAVYYCARLGYDDIYDDWYFHVWGQGTTVTVSS VL: DIQMTQSPSSLSASVGDRVTITCRASQDISNYLNWYQQKPGKAPKLLIYHTSRLLSGVPSRFSGSGSGTDFTLTISSLQPEDFATYYCQQGDTLPYTFGGGTKVEIK
Result: 0.189 nM

Continue with the next binder.
Task: // lookup Kd for mabA_pH1 (antibody, V domains shown) VH: EVQLVQSGAEVKKPGASVKVSCKASGYTFTDYNMHWVRQAPGQGLEWMGEINPNSGHAGYNQKFKGRVTMTTDTSTSTAYMELRSLRSDDTAVYYCARLHYDDIYDDWYFDVWGQGTTVTVSS VL: DIQMTQSPSSLSASVGDRVTITCRASHDISNYLNWYQQKPGKAPKLLIYYTSRLLSGVPSRFSGSGSGTDFTLTISSLQPEDFATYYCQQGDTLPYTFGGGTKVEIK
Result: 0.202 nM
